# measuredOn: Dual specificity mitogen-activated protein kinase kinase 1 (Homo sapiens, UniProt Q02750)
# Sequence (Q02750 whole entry): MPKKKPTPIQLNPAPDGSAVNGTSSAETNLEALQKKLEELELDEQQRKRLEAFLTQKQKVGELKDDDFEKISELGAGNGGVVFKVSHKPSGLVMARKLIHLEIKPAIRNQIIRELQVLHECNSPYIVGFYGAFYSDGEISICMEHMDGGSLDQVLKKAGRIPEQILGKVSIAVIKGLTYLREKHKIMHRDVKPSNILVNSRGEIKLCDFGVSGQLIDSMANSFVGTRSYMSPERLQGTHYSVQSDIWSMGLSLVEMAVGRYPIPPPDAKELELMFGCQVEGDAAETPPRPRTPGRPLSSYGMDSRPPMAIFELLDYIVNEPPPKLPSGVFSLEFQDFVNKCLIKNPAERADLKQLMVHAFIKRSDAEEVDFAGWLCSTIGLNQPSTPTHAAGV
# procedureSummary: Inhibition of activated human MEK1 in MEK-ERK coupling assay
measureName: IC50 (µM)
Numbers only, in µM.

Field IC50 (entry `Cc1c(Cc2ccccc2)c(=O)oc2cc(OC(=O)N(C)C)c(Cl)cc12` ) reads 10

====

Kindly state pIC50 for each of the entries shown.
# measuredOn: Dual specificity mitogen-activated protein kinase kinase 1 (Homo sapiens, UniProt Q02750)
# procedureSummary: Inhibition of human MEK1 activation by bRaf in RAF-MEK-ERK coupling assay
Answers are plain numbers, as −log10 of the molar value.

Cc1c(Cc2ccccc2)c(=O)oc2cc(OC(=O)C3CC3)ccc12 :: 6.70

Turning now to a further record.
Field pIC50 (entry `Cc1c(Cc2ccc(F)cc2)c(=O)oc2cc(OC(=O)N(C)C)ccc12` ) reads 6.52

meta.source: ChEMBL document CHEMBL1141961
